Provenance of the data: PubChem BioAssay (NCI)

tested on: SF-295 CNS; assay: NCI-60 one-dose screen, 48 h (100 = growth as untreated, 0 = no growth, -100 = all killed); settings: 10 µM unless noted
The panel holds about 83,000 compounds, 20% with a hit somewhere; the sample as a whole holds those more often.
The following compounds are shown together with reported growth values.

| compound | value-units | growth |
| --- | --- | --- |
| O=S(=O)(NCCNc1nccc(-c2c(-c3cccc(F)c3)nc3occn23)n1)c1ccc(C(F)(F)F)cc1 | % | 110 |
| O=C(COc1cccc(/C=C2\Oc3ccccc3C2=O)c1)c1ccc([N+](=O)[O-])cc1 | % | 197 |
| O=C1/C(=C\c2cccn2Cc2ccccc2)c2ccccc2N1c1c(Cl)cccc1Cl | % | 77.5 |
| O=C(CSc1nc2ccc([N+](=O)[O-])cc2[nH]1)Nc1ccc(F)c(Cl)c1 | % | 18.1 |
| CC1Cc2ccc(OCCN(C)C)cc2C1=O (stereo unspecified) | % | 99.6 |
| CC1=CCc2ccccc21 | % | 101 |
| CCc1cccc(Cl)c1 | % | 110 |
| CO[C@H]1CC[C@@]2(C)C(=CC[C@H]3[C@@H]4C[C@H](O)C[C@@]4(C)CC[C@@H]32)C1 | % | 40.8 |
| O=C(CCNCc1ccccc1)c1ccccc1 | % | 90 |
| Cc1ccc(S(=O)(=O)Nc2ccccc2)cc1N | % | 119 |
| COc1ccc(C(=O)CCC(=O)O)cc1 | % | 95 |

###

Test system: DU-145 prostate
Assay: NCI-60 one-dose screen, 48 h
Settings: 10 µM unless noted
Experimental: Cells are grown in 96 well plates and exposed to the test compound for 48 hours. Compounds are tested at a single concentration, which is 10^-5 M for most compounds. The reported endpoint is percent growth (GI% or GIPRCNT), where numbers from 0 - 100% represent growth inhibition, and numbers from -100% - 0 represent cell death. For example, a value of 40 represents 60% growth inhibition. A value of 0 means no net growth occurred over the course of the experiment. […]
This is part of a sample that, as a whole, favours compounds with a hit. Of some 83,000 tested, about 20% had one in any assay. Activity calls are given as the source filed them. The calls were made as follows: active = growth percent below 10; inactive = the rest.
Classes used: class 1 = active, class 0 = inactive

| compound | class-label |
| --- | --- |
| C#CCC(C(=O)OCC)C(=O)OCC | class 0 |
| O=C(NNc1ccc(-c2ccccc2)nn1)c1ccc(F)cc1 | class 0 |
| COc1ccc2c(c1)c(-c1noc(C(=O)c3cn(C)c4ncc(Br)cc34)n1)cn2C | class 0 |
| OC(c1ccc(Cl)cc1)(c1ccc(Cl)cc1)C(O)(c1ccc(Cl)cc1)c1ccc(Cl)cc1 | class 0 |
| C1=C[C@H]2O[C@@H]1c1ccc3[nH]ccc3c12 | class 0 |
| CCNC(=O)N1CCc2c(Cl)c3c(c(OC)c2[C@@H]1[C@H]1OCc2c1ccc(OC)c2OC)OCCO3 | class 0 |
| O=C1CC(c2ccccc2)Cc2nc3ccc(Cl)cc3cc21 (centres undefined) | class 1 |
| C#C[C@]1(O)CC[C@H]2[C@@H]3CC=C4c5nc(Nc6ccc(OC)cc6OC)sc5CC[C@]4(C)[C@H]3CC[C@@]21C | class 0 |
| COC(=O)c1cc(O)c2c(c1C(=O)OC)C[C@H]1[C@@H]3CC=C4C[C@@H](O)CC[C@]4(C)[C@H]3CC[C@]21C | class 0 |
